# CC50 at 72 h annotations
- experiment.summary: Cytotoxicity on THP-1 cell line (MTT)
- Type: cell-based
- conditions: human, THP-1 cells, THP1 cell line

Sample answers from the record:
- compound: "O=[N+]([O-])c1c(CS(=O)(=O)c2ccc(O)cc2)nc2c(Sc3ccc(Cl)cc3)cc(Cl)cn12"
  measurement: "28.2 µM"
- compound: "CSc1ccc(OCc2ncc([N+](=O)[O-])n2C)cc1 [Fexinidazole, reference compound]"
  measurement: "> 100 µM"
- compound: "O=[N+]([O-])c1c(CS(=O)(=O)CCC(F)(F)F)nc2c([S+]([O-])c3ccc(Cl)cc3)cc(Cl)cn12 (centres unmarked)"
  measurement: "> 100 µM"

Given the compound O=[N+]([O-])c1c(CS(=O)(=O)c2ccc(Cl)cc2)nc2c(Sc3ccc(Cl)cc3)cc(Cl)cn12 , what is its reported CC50 at 72 h?
> 15.6 µM

Next compound: O=[N+]([O-])c1c(CS(=O)(=O)CCC(F)(F)F)nc2c(Br)cc(Cl)cn12
26 µM

Next compound: O=[N+]([O-])c1c(CS(=O)(=O)c2ccccc2)nc2c(Br)cc(Cl)cn12 [Hit A, reference compound]
> 100 µM

###

# Papp at 4 h, 100 µM annotations
- experiment.summary: Parallel artificial membrane permeability assay (PAMPA)
- Format: in vitro ADME
- conditions: PAMPA, pH 7.4; read-out: PAMPA GIT at pH 7.4 Pe
Note: unit ×10⁻⁶ cm/s is implicit; provide only the numeric part.

Sample answers from the record:
- compound: "O=[N+]([O-])c1c(CS(=O)(=O)c2ccccc2)nc2c(Sc3ccc(Cl)cc3)cc(Cl)cn12 [Hit B, reference compound]"
  measurement: 0.4
- compound: "O=[N+]([O-])c1c(CS(=O)(=O)CCC(F)(F)F)nc2c(Sc3ccc(Cl)cc3)cc(Cl)cn12"
  measurement: 0.63
- compound: "O=[N+]([O-])c1c(CS(=O)(=O)c2ccccc2)nc2c(Br)cc(Cl)cn12 [Hit A, reference compound]"
  measurement: 17.3

Alright, here's another compound for you.
Given the compound O=[N+]([O-])c1c(CS(=O)(=O)CCC(F)(F)F)nc2c(-c3ccncc3)cc(Cl)cn12 , what is its reported Papp at 4 h, 100 µM?
31.4

###

# solubility thermodynamic at 24 h annotations
- experiment.summary: Thermodynamic solubility at pH 7.4 (miniaturized shake-flask)
- Assay type: physicochemical
- conditions: phosphate buffer (PBS), aqueous buffer, kinetic from dmso stock, pH 7.4, PBS, 23 °C
Note: unit µM is implicit; provide only the numeric part.

Sample answers from the record:
- item.smiles: "O=[N+]([O-])c1c(CS(=O)(=O)c2ccc(OC(F)(F)F)cc2)nc2c(Sc3ccc(Cl)cc3)cc(Cl)cn12"
  readout.name: "solubility thermodynamic at 24 h"
  measurement.unit: "µM"
  measurement: 64.7
- item.smiles: "O=[N+]([O-])c1c(CS(=O)(=O)CCC(F)(F)F)nc2c(Sc3ccc(Cl)cc3)cc(Cl)cn12"
  readout.name: "solubility thermodynamic at 24 h"
  measurement.unit: "µM"
  measurement: 12.4
- item.smiles: "O=[N+]([O-])c1c(CS(=O)(=O)c2ccc(C(F)(F)F)cc2)nc2c(Sc3ccc(Cl)cc3)cc(Cl)cn12"
  readout.name: "solubility thermodynamic at 24 h"
  measurement.unit: "µM"
  measurement: 2.5

Alright, here's another compound for you.
Given the compound O=[N+]([O-])c1c(CS(=O)(=O)CCC(F)(F)F)nc2c(-c3ccncc3)cc(Cl)cn12 , what is its reported solubility thermodynamic at 24 h?
31.1
